Source of measurements: ChEMBL document CHEMBL4689842

System: HEK-293T
Test: Multiplex assay against HEK293T
Assay type: toxicity, cell-based
Conditions: human, 24 h, 1 µM, compound concentration 1 uM, replicate 1
Examples of compounds with documented Population Pyknosed Nuclei (%) follow.
Please give a number only; it is taken to be in %.

Return reported Population Pyknosed Nuclei (%). Input compound: "C=CC(=O)Nc1ccc2ncnc(Nc3ccc(OCc4cccc(F)c4)c(Cl)c3)c2c1.Cc1ccc(S(=O)(=O)O)cc1"
47

Return reported Population Pyknosed Nuclei (%). Input compound: NC(=O)Nc1cc(-c2cccc(F)c2)sc1C(=O)N[C@H]1CCCNC1 [AZD-7762]
38

----------
Examples of compounds with documented Population Hoechst High Intensity Objects (%) follow.
Tested on: HEK-293T
Test: Multiplex assay against HEK293T
Assay type: toxicity, cell-based
Settings: human, 12 h, 1 µM, compound concentration 1 uM, replicate 2
Please give a number only; it is taken to be in %.

Cc1nc(Nc2n[nH]c3c2CN(C(=O)N[C@H](CN(C)C)c2ccccc2)C3(C)C)c2sccc2n1	3
CN1CCN(CCOc2cc(OC3CCOCC3)c3c(Nc4c(Cl)ccc5c4OCO5)ncnc3c2)CC1	8
CN1CCC[C@@H]1CCO[C@](C)(c1ccccc1)c1ccc(Cl)cc1.O=C(O)/C=C/C(=O)O [CLEMASTINE FUMARATE]	3
CC[C@H](C)C(=O)O[C@H]1C[C@@H](C)C=C2C=C[C@H](C)[C@H](CC[C@@H]3C[C@@H](O)CC(=O)O3)[C@H]21	4
Cc1csc2c(N[C@@H](C)CN3CCN(S(=O)(=O)c4ccc(Cl)c(Cl)c4)CC3)ncnc12	13
CN(C)C(=O)/C(C#N)=C/c1ccc(-c2nc3cnc4[nH]ccc4c3n2C2CCCCC2)o1	5

Consider the record given below.
For HEK-293T, give the measured Population Hoechst High Intensity Objects (%) of the entry C[C@@H](NCCCc1cccc(C(F)(F)F)c1)c1cccc2ccccc12.Cl [CINACALCET HYDROCHLORIDE]
3

----------
Test system: HEK-293T
Test: Incucyte cell viability with HEK293T; note: filed as whole numbers so only -1 and 0 and 1 occur
Type: toxicity, cell-based
Settings: human, 6 h, 10 µM, compound concentration 10 uM, replicate number 2, timepoint 6 hours
Examples of molecules with documented Growth Rate follow.
# output: bare number, no unit

Worked examples follow.
C=CC(=O)Nc1ccc2ncnc(Nc3ccc(OCc4cccc(F)c4)c(Cl)c3)c2c1.Cc1ccc(S(=O)(=O)O)cc1	0
CN(C)C(=O)c1ccc(-c2cc(C(=O)N[C@@H]3CCc4ccccc43)no2)cc1O	0
CCc1cc(C(C)=O)c(O)cc1OCCCCCC(C)(C)c1nn[nH]n1 [LY-255283]	0

Return reported Growth Rate. Input molecule: "CSc1ccc(C(=O)N[C@@H]2CCCC[C@@H]2NC(=O)CNC(=O)c2cc(C(F)(F)F)ccc2NC(=O)NC(C)C)cc1"
1

Return reported Growth Rate. Input molecule: CN([C@@H]1CCc2c(CC(=O)O)c3ccccc3n2C1)S(=O)(=O)c1ccc(F)cc1 [MK-7246]
1

Return reported Growth Rate. Input molecule: O=S(=O)(c1ccccc1)N(CC(F)(F)F)c1ccc(C(O)(C(F)(F)F)C(F)(F)F)cc1 [T091317]
1

Return reported Growth Rate. Input molecule: "O=C(O)c1ccc(-c2coc3ncc(-c4ccccc4)cc23)cc1Cl"
1
